Tested on: HT29 RNF43 G659fs (RNF43 659mut, CRISPR-edited)
Experiment: cell viability activity relative to DMSO (negative = inhibition); higher = more viable cells (less growth inhibition)
Details: 5 µM; 96 h
Friendly reminder: cell viability activity below -60% is T, at or above is F.

Worked set:
structure-notation	test-system	discrete-label
NC1(Cc2ccc(Cl)cc2)CCN(c2ncnc3[nH]ccc23)CC1	HT29 RNF43 G659fs (RNF43 659mut, CRISPR-edited)	F
CN1CCN(CCCN2c3ccccc3Sc3ccc(C(F)(F)F)cc32)CC1	HT29 RNF43 G659fs (RNF43 659mut, CRISPR-edited)	F
CCOc1cc(C(=O)N2CCC(N3CCN(C)CC3)CC2)ccc1Nc1ncc2c(n1)N(C1CCCC1)c1ccccc1C(=O)N2C	HT29 RNF43 G659fs (RNF43 659mut, CRISPR-edited)	T

IN: Is cell viability activity strictly under -60% for the entry COc1ncc(-c2ccc3nccc(-c4ccnnc4)c3c2)cc1NS(=O)(=O)c1ccc(F)cc1F ?
OUT: T

IN: Is cell viability activity strictly under -60% for the entry COc1ccc(F)c(F)c1C(=O)c1cnc(NC2CCN(S(C)(=O)=O)CC2)nc1N ?
OUT: T

---

Test system: HT29 sg-Ctrl (RNF43 wildtype)
Assay: cell viability activity relative to DMSO (negative = inhibition); higher = more viable cells (less growth inhibition)
Settings: 5 µM; 96 h
Friendly reminder: cell viability activity below -80% is true (1), at or above is false (0).

Worked set:
compound	test-system	discrete-label
CC(C)/N=c1\cc2n(-c3ccc(Cl)cc3)c3ccccc3nc-2cc1Nc1ccc(Cl)cc1	HT29 sg-Ctrl (RNF43 wildtype)	false (0)
COc1cc2ncnc(Sc3nnc(C)s3)c2cc1OC	HT29 sg-Ctrl (RNF43 wildtype)	false (0)
CC(C)(N)c1cc(C(=O)N[C@@H]2CCc3ccc(Oc4ccnc5c4CCC(=O)N5)cc3C2)cc(C(F)(F)F)c1	HT29 sg-Ctrl (RNF43 wildtype)	false (0)
NCCCCNCCCN	HT29 sg-Ctrl (RNF43 wildtype)	false (0)

IN: Is cell viability activity strictly under -80% for the entry CC1(COc2ccc3c(c2)ncn3-c2ccc3cccc(N4CCC(N)CC4)c3n2)COC1 ?
OUT: true (1)

IN: Is cell viability activity strictly under -80% for the entry C=C[C@@](C)(/C=C/c1ccc(O)cc1)CCC=C(C)C ?
OUT: false (0)

IN: Is cell viability activity strictly under -80% for the entry Nc1c2ccccc2nc2ccccc12 ?
OUT: true (1)

IN: Is cell viability activity strictly under -80% for the entry Cc1cc(-c2cc(O)ccc2Cl)cc2nnc(Nc3ccc(OCCN4CCCC4)cc3)nc12 ?
OUT: false (0)

IN: Is cell viability activity strictly under -80% for the entry O=C(NC[C@H](O)CO)c1ccncc1Nc1ccc(I)cc1F ?
OUT: true (1)

IN: Is cell viability activity strictly under -80% for the entry CN(C)CCOc1ccc(-c2nc(-c3ccc4c(c3)CC/C4=N\O)c(-c3ccncc3)[nH]2)cc1 ?
OUT: false (0)

IN: Is cell viability activity strictly under -80% for the entry CN1CC[C@H](c2c(O)cc(O)c3c(=O)cc(-c4ccccc4Cl)oc23)[C@H](O)C1 ?
OUT: true (1)

IN: Is cell viability activity strictly under -80% for the entry Cc1ccc(C(=O)N(CCCN)[C@@H](c2nc3cc(Cl)ccc3c(=O)n2Cc2ccccc2)C(C)C)cc1 ?
OUT: false (0)

IN: Is cell viability activity strictly under -80% for the entry OCCn1cc(-c2ccc3c(c2)CC/C3=N\O)c(-c2ccncc2)n1 ?
OUT: false (0)

IN: Is cell viability activity strictly under -80% for the entry O=C(CCCCCCNC(=O)c1cnc(N(c2ccccc2)c2ccccc2)nc1)NO ?
OUT: false (0)

IN: Is cell viability activity strictly under -80% for the entry CC(C)(C#N)c1ccc(N2C(=O)OCc3cnc4ccc(-c5cnc6ccccc6c5)cc4c32)cc1 ?
OUT: false (0)

IN: Is cell viability activity strictly under -80% for the entry COC(=O)N[C@@H](C)CNc1nccc(-c2cn(C(C)C)nc2-c2cc(Cl)cc(NS(C)(=O)=O)c2F)n1 ?
OUT: false (0)

IN: Is cell viability activity strictly under -80% for the entry O=C1[C@H](Cc2ccc(O)cc2)N2C(=O)CCN(C(=O)NCc3ccccc3)[C@H]2CN1Cc1cccc2ccccc12 ?
OUT: false (0)

IN: Is cell viability activity strictly under -80% for the entry C[C@@H](C(=O)O)c1ccc(-c2ccccc2)c(F)c1 ?
OUT: false (0)

IN: Is cell viability activity strictly under -80% for the entry COC(=O)Nc1ccc(-c2nc(N3CCOCC3)c3cnn(C4CCN(Cc5cccnc5)CC4)c3n2)cc1 ?
OUT: false (0)

IN: Is cell viability activity strictly under -80% for the entry COc1ccc(F)c(F)c1C(=O)c1cnc(NC2CCN(S(C)(=O)=O)CC2)nc1N ?
OUT: false (0)

IN: Is cell viability activity strictly under -80% for the entry CC(C)N(C[C@H]1O[C@@H](n2cnc3c(N)ncnc32)[C@H](O)[C@@H]1O)[C@H]1C[C@@H](CCc2nc3cc(C(C)(C)C)ccc3[nH]2)C1 ?
OUT: false (0)

---

Tested on: HT29 sg-Ctrl (RNF43 wildtype)
Experiment: cell viability activity relative to DMSO (negative = inhibition); higher = more viable cells (less growth inhibition)
Settings: 5 µM; 96 h
Provide the reported cell viability activity of each item.
One number for each entry, in %.

Example compounds with recorded cell viability activity:
compound	cell viability activity, %
CN(C)CCCCC(=O)Nc1ccc(NC(=S)NC(=O)c2ccc(C(C)(C)C)cc2)cc1	-91.9
Cc1ccc(S(=O)(=O)C=CC#N)cc1	-97.7
COc1cc(NC(=O)Nc2cccc(CNC(=O)O[C@H]3CCOC3)c2)ccc1-c1cnco1	-23.6
Cc1nc(=O)c2cc(CN(C)c3ccc(C(=O)N[C@@H](CCC(=O)O)C(=O)O)s3)ccc2[nH]1	-60.9

Provide reported cell viability activity for each item, in the same order as listed.
1. CN(C)c1ccc(C(=O)NCCCCCCC(=O)NO)cc1
2. CCCCc1ccc2[nH]c(NC(=O)OC)nc2c1

OUT:
1. -82
2. -76.7

---

Test system: HT29 RNF43 G659fs (RNF43 659mut, CRISPR-edited)
Assay: cell viability activity relative to DMSO (negative = inhibition); higher = more viable cells (less growth inhibition)
Details: 5 µM; 96 h
Friendly reminder: cell viability activity below -60% is TRUE, at or above is FALSE.

Worked set:
structure-notation	discrete-label
COc1c(C)c2c(c(O)c1C/C=C(\C)CCC(=O)O)C(=O)OC2	FALSE
CCCS(=O)(=O)Nc1ccc(F)c(C(=O)c2c[nH]c3ncc(Cl)cc23)c1F	FALSE
COc1ccc(S(=O)(=O)Nc2cccnc2Nc2ccc(O)cc2)cc1	TRUE
Cc1cn([C@H]2C[C@H](N=[N+]=[N-])[C@@H](CO)O2)c(=O)[nH]c1=O	FALSE

IN: Is cell viability activity strictly under -60% for the entry Nc1ccc(-c2cccc3c(=O)cc(N4CCOCC4)oc23)cc1 ?
OUT: TRUE

---

Provide the reported cell viability activity of each item.
System: HT29 sg-Ctrl (RNF43 wildtype)
Assay: cell viability activity relative to DMSO (negative = inhibition); higher = more viable cells (less growth inhibition)
Conditions: 5 µM; 96 h
Answers are plain numbers, in %.

Provide reported cell viability activity for each item, in the same order as listed.
1. CCS(=O)(=O)c1cccc(-c2cc(C(=O)NC3CCN(C)CC3)c(C)c3[nH]c4ncc(C)cc4c23)c1
2. CC(=O)O[C@@]12CO[C@@H]1C[C@H](O)[C@@]1(C)C(=O)[C@H](O)C3=C(C)[C@@H](OC(=O)[C@H](O)[C@@H](NC(=O)OC(C)(C)C)c4ccccc4)C[C@@](O)([C@@H](OC(=O)c4ccccc4)[C@H]21)C3(C)C
3. CCCCCCOc1nsnc1C1=CCCN(C)C1
4. CC(=O)Nc1nc(C)c(-c2ccc(Cl)c(S(=O)(=O)NCCO)c2)s1
5. COC(=O)C1=C(C)NC(C)=C(C(=O)OC2CCCN(Cc3ccccc3)C2)C1c1cccc([N+](=O)[O-])c1 (stereo not drawn)
6. OC[C@H]1O[C@@H](Oc2cc(O)cc(/C=C/c3ccc(O)cc3)c2)[C@H](O)[C@@H](O)[C@@H]1O
7. CC(C)Nc1cc(-c2c[nH]c(C(=O)N[C@H](CO)c3cccc(Cl)c3)c2)c(Cl)cn1
8. COc1cccc2cc(-c3nc([C@H]4CC[C@H](C(=O)O)CC4)n4ncnc(N)c34)[nH]c12

OUT:
1: -85.9; 2: -58.6; 3: -58.7; 4: -38.4; 5: -85.6; 6: -36; 7: -78.7; 8: -27.5

---

Tested on: HT29 RNF43 G659fs (RNF43 659mut, CRISPR-edited)
Test: cell viability activity relative to DMSO (negative = inhibition); higher = more viable cells (less growth inhibition)
Conditions: 5 µM; 96 h
Friendly reminder: cell viability activity below -50% is Satisfied, at or above is Not satisfied.

Worked set:
structure-notation	discrete-label
COc1cccc2c1C(=O)c1c(O)c3c(c(O)c1C2=O)C[C@@](O)(C(=O)CO)C[C@@H]3O[C@H]1C[C@H](N)[C@@H](O)[C@H](C)O1	Satisfied
CCN(CC)c1ccc(C(=C2C=CC(=[N+](CC)CC)C=C2)c2ccccc2)cc1	Satisfied

IN: Is cell viability activity strictly under -50% for the entry C=CC(=O)Nc1cccc(Oc2nc(Nc3ccc(N4CCN(C)CC4)cc3)ncc2Cl)c1 ?
OUT: Not satisfied

IN: Is cell viability activity strictly under -50% for the entry O=C1NCN(c2ccccc2)C12CCN(CCCC(c1ccc(F)cc1)c1ccc(F)cc1)CC2 ?
OUT: Not satisfied

IN: Is cell viability activity strictly under -50% for the entry O=P(O)(O)C(O)(Cn1ccnc1)P(=O)(O)O ?
OUT: Not satisfied
